experimental_system: human orexin 1 receptor (Homo sapiens, UniProt O43613)
procedure_text: Human orexin 1 receptor radioligand binding
study_conditions: human orexin 1 receptor; averages of 2-20 runs; read-out: hOX1 Ki
endpoint: Ki (µM)

1: O=C(c1c(F)cccc1-n1nccn1)N1CC2CC(Nc3ccc(C(F)(F)F)cn3)C1C2 (stereo not shown) [Example 146]
2: O=C(c1cc(F)ccc1-n1nccn1)N1C[C@H]2C[C@@H](Nc3ncc(C(F)(F)F)cn3)[C@@H]1C2 [Example 225]
3: O=C(c1ccccc1-c1ncccn1)N1C[C@H]2C[C@@H](Oc3cnc(C(F)(F)F)cn3)[C@@H]1C2 [Example 130]
4: Cc1cccc(C(=O)N2C[C@H]3C[C@@H](Oc4ccc(C(F)(F)F)cn4)[C@@H]2C3)c1-c1ncc(F)cn1 [Example 91]
Inquiry: Rank entries according to their Ki, from the largest number down. Please express your ranking as an ordered list of the labels.
Reply text: 3, 2, 4, 1

====

experimental_system: rat orexin 1 receptor (Rattus norvegicus, UniProt P56718)
procedure_text: Rat orexin 1 receptor radioligand binding
study_conditions: rat orexin 1 receptor; averages of 2-20 runs; read-out: rOX1 Ki
endpoint: Ki (nM)

Solved entries:
[
  {
    "chemical_smiles": "Cc1ccc(C(=O)N2C[C@H]3C[C@@H](Oc4ccc(Br)cn4)[C@@H]2C3)c(-n2nccn2)n1",
    "unit_tag": "nM",
    "Ki": 119
  },
  {
    "chemical_smiles": "Cc1cnc(O[C@@H]2C[C@H]3C[C@@H]2N(C(=O)c2ccccc2-n2nccn2)C3)nc1",
    "unit_tag": "nM",
    "Ki": 140
  },
  {
    "chemical_smiles": "CN(c1cnc(C(F)(F)F)cn1)[C@@H]1C[C@H]2C[C@@H]1N(C(=O)c1cccc(F)c1-c1ncccn1)C2",
    "unit_tag": "nM",
    "Ki": 7
  }
]

I: CN(c1ccc(C(F)(F)F)cn1)[C@@H]1C[C@H]2C[C@@H]1N(C(=O)c1cc(F)ccc1-n1nccn1)C2
II: O=C(c1ccccc1-n1nccn1)N1C[C@H]2C[C@@H](Nc3ncc(C(F)(F)F)cc3F)[C@@H]1C2
Inquiry: # return whichever of I and II has the smaller Ki Respond using the label that marks the chosen record.
Reply text: II
(II: 3 nM, I: 5 nM)

====

experimental_system: human orexin 1 receptor (Homo sapiens)
procedure_text: Human orexin 1 receptor radioligand binding
study_conditions: human orexin 1 receptor; averages of 2-20 runs; read-out: hOX1 Ki
endpoint: Ki (nM)

Solved entries:
[
  {
    "chemical_smiles": "O=C(c1cccc(F)c1-c1ncccn1)N1C[C@H]2C[C@@H](N(CC3CC3)c3cnc(C(F)(F)F)cn3)[C@@H]1C2",
    "Ki [nM]": 16
  },
  {
    "chemical_smiles": "O=C(c1cccc(F)c1-c1ncc(F)cn1)N1C[C@H]2C[C@@H](Oc3ccc(C(F)(F)F)cn3)[C@@H]1C2",
    "Ki [nM]": 19
  }
]

a: O=C(c1ccccc1-c1ncccn1)N1C[C@H]2C[C@@H](Nc3ncc(Cl)cn3)[C@@H]1C2
b: Cc1ccc(-c2ncccn2)c(C(=O)N2C[C@H]3C[C@@H](Nc4ccc(C(F)(F)F)nn4)[C@@H]2C3)n1
Inquiry: Return label of the item with the larger Ki. Candidates: a , b . Respond using the label that marks the chosen record.
Reply text: b

====

experimental_system: human orexin 2 receptor (Homo sapiens (Human))
procedure_text: Human orexin 2 receptor radioligand binding
study_conditions: human orexin 2 receptor; averages of 2-20 runs; read-out: hOX2 Ki
endpoint: Ki (µM)

[
  {
    "compound": "O=C(c1cccc(F)c1-c1ncccn1)N1C[C@H]2C[C@@H](Oc3ncccc3C(F)(F)F)[C@@H]1C2 [Example 96]",
    "measured_result": 1.7
  }
]

P: Cc1ccc(-n2nccn2)c(C(=O)N2C[C@H]3C[C@@H](Nc4ccc(C(F)(F)F)nn4)[C@@H]2C3)n1 [Example 243]
Q: Cc1cccc(C(=O)N2C[C@H]3C[C@@H](Nc4cnc(C(F)(F)F)cn4)[C@@H]2C3)c1-n1nccn1 [Example 196]
Inquiry: Return label of the item with the larger Ki. Candidates: P , Q . Respond using the label that marks the chosen record.
Reply text: P

====

experimental_system: human orexin 2 receptor (Homo sapiens (Human), UniProt O43614)
Sequence (O43614 whole entry): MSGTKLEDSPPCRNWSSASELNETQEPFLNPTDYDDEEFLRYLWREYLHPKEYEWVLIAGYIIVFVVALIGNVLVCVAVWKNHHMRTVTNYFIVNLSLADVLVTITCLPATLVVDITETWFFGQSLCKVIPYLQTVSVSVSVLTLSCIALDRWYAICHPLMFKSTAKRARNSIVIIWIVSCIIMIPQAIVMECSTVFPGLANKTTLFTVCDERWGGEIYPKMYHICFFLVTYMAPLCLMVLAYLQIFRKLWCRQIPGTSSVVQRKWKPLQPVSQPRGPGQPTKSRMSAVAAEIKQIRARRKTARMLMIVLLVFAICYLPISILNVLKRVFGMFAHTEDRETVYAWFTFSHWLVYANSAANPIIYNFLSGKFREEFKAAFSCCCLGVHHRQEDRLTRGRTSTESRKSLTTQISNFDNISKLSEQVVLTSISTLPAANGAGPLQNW
procedure_text: Human orexin 2 receptor radioligand binding
study_conditions: human orexin 2 receptor; averages of 2-20 runs; read-out: hOX2 Ki
pKi: −log10 of the molar value.
endpoint: pKi

[
  {
    "compound": "O=C(c1cccc(F)c1-c1ncccn1)N1C[C@H]2C[C@@H](Nc3cnc(Cl)cn3)[C@@H]1C2 [Example 214]",
    "endpoint": "pKi",
    "measured_result": 6.15
  },
  {
    "compound": "O=C(c1occc1-c1ccccc1)N1C[C@H]2C[C@@H](Nc3cnc(C(F)(F)F)cn3)[C@@H]1C2 [Example 207]",
    "endpoint": "pKi",
    "measured_result": 6.21
  }
]

a: O=C(c1cc(F)ccc1-c1ncccn1)N1C[C@H]2C[C@@H](Nc3ncc(C(F)(F)F)cn3)[C@@H]1C2 [Example 228]
b: O=C(c1ccccc1-n1nccn1)N1C[C@@H]2CC[C@H]1[C@H](Oc1ccc(Cl)cn1)C2 [Example 270]
Inquiry: # return whichever of a and b has the smaller pKi Respond using the label that marks the chosen record.
Reply text: a
(a: 6.26, b: 6.70)

====

experimental_system: rat orexin 1 receptor (Rattus norvegicus, UniProt P56718)
procedure_text: Rat orexin 1 receptor radioligand binding
study_conditions: rat orexin 1 receptor; averages of 2-20 runs; read-out: rOX1 Ki
endpoint: Ki (nM)

[
  {
    "compound": "O=C(c1ccccc1-c1ncc(F)cn1)N1C[C@H]2C[C@@H](Nc3ncc(C(F)(F)F)cn3)[C@@H]1C2 [Example 231]",
    "Ki [nM]": 9
  }
]

a: Cc1cnc(-c2ncccn2)c(C(=O)N2C[C@H]3C[C@@H](Oc4ccc(C(F)(F)F)cn4)[C@@H]2C3)c1 [Example 290]
b: Cc1ccc(-n2nccn2)c(C(=O)N2C[C@H]3C[C@@H](Nc4cnc(C(F)(F)F)cn4)[C@@H]2C3)n1 [Example 61]
Inquiry: Return label of the item with the larger Ki. Candidates: a , b . Respond using the label that marks the chosen record.
Reply text: a
(a: 97 nM, b: 15 nM)

====

experimental_system: rat orexin 1 receptor (Rattus norvegicus, UniProt P56718)
procedure_text: Rat orexin 1 receptor radioligand binding
study_conditions: rat orexin 1 receptor; averages of 2-20 runs; read-out: rOX1 Ki
endpoint: Ki (nM)

Solved entries:
[
  {
    "compound": "COc1ccc(N[C@@H]2C[C@H]3C[C@@H]2N(C(=O)c2cccc(F)c2-c2ncccn2)C3)nc1 [Example 176]",
    "unit_tag": "nM",
    "measured_result": 56
  },
  {
    "compound": "Cc1ccc(-n2nccn2)c(C(=O)N2C[C@H]3C[C@@H](Oc4ccc(F)cn4)[C@@H]2C3)n1 [Example 119]",
    "unit_tag": "nM",
    "measured_result": 262
  },
  {
    "compound": "O=C(c1cccc(F)c1-c1ncc(F)cn1)N1C[C@H]2C[C@@H](Oc3ccc(Cl)cn3)[C@@H]1C2 [Example 117]",
    "unit_tag": "nM",
    "measured_result": 16
  }
]

P: O=C(c1ccccc1-c1ncccn1)N1C[C@@H]2CC[C@H]1[C@H](Nc1cnc(C(F)(F)F)cn1)C2 [Example 280]
Q: Cc1cnc(-n2nccn2)c(C(=O)N2C[C@H]3C[C@@H](Oc4ccc(C(F)(F)F)cn4)[C@@H]2C3)c1 [Example 88]
R: Cc1cnc(C(=O)N2C[C@H]3C[C@@H](Oc4ccc(C(F)(F)F)cn4)[C@@H]2C3)c(-n2ccnn2)c1 [Example 294]
S: O=C(c1cccc(F)c1-n1nccn1)N1C[C@H]2C[C@@H](Nc3ncc(Cl)cn3)[C@@H]1C2 [Example 234]
Inquiry: Could you please order the items by Ki, going from the lowest number to the highest? Please express your ranking as an ordered list of the labels.
Reply text: P, S, Q, R
(P: 7 nM, S: 17 nM, Q: 45 nM, R: 166 nM)

a: Cc1ccc(-n2nccn2)c(C(=O)N2C[C@H]3C[C@@H](Nc4ncc(C(F)(F)F)cc4F)[C@@H]2C3)n1 [Example 178]
b: O=C(c1cc(F)ccc1-n1nccn1)N1CC2CC(Nc3cnc(Cl)cn3)C1C2 (centres unmarked) [Example 213]
c: CCOc1ccc(C)nc1C(=O)N1C[C@H]2C[C@@H](Nc3ncc(C(F)(F)F)cn3)[C@@H]1C2 [Example 233]
Inquiry: Sort by Ki, descending. Please express your ranking as an ordered list of the labels.
Reply text: c, b, a

A: O=C(c1ccc(F)cc1-c1ncccn1)N1C[C@H]2C[C@@H](Oc3ccc(Br)cn3)[C@@H]1C2 [Example 110]
B: Cc1nc(C(=O)N2CC3CC(Oc4ccc(C(F)(F)F)cn4)C2C3)c(-c2ccc(F)cc2)s1 (racemic) [Example 5]
C: Cc1ccc(-c2ncccn2)c(C(=O)N2C[C@H]3C[C@@H](Oc4ccc(C(F)(F)F)cn4)[C@@H]2C3)n1 [Example 92]
Inquiry: Could you please order the items by Ki, going from the lowest number to the highest? Please express your ranking as an ordered list of the labels.
Reply text: A, C, B
(A: 6 nM, C: 13 nM, B: 25 nM)

I: O=C(c1cc(F)ccc1-n1nccn1)N1C[C@H]2C[C@@H](Nc3ncc(Cl)cn3)[C@@H]1C2 [Example 235]
II: O=C(c1cccc(F)c1-c1ncccn1)N1C[C@H]2C[C@@H](Oc3ccc(Br)cn3)[C@@H]1C2 [Example 48]
Inquiry: Return label of the item with the larger Ki. Candidates: I , II . Respond using the label that marks the chosen record.
Reply text: I
(I: 36 nM, II: 4 nM)

P: O=C(c1c(F)cccc1-c1ncccn1)N1C[C@H]2C[C@@H](Oc3cnc(C(F)(F)F)cn3)[C@@H]1C2 [Example 129]
Q: O=C(c1ccccc1-n1nccn1)N1C[C@H]2C[C@@H](Oc3ccccn3)[C@@H]1C2 [Example 102]
R: O=C(c1cccc(F)c1-c1ncccn1)N1C[C@H]2C[C@@H](Oc3ccc(C(F)(F)F)nn3)[C@@H]1C2 [Example 141]
S: Cc1cnc(C(=O)N2C[C@@H]3CC[C@H]2[C@H](Oc2cnc(C(F)(F)F)cn2)C3)c(-c2ncccn2)c1 [Example 282]
Inquiry: Sort by Ki, descending. Please express your ranking as an ordered list of the labels.
Reply text: Q, R, S, P

P: Cc1ccc(-c2ncccn2)c(C(=O)N2C[C@H]3C[C@@H](Oc4ncc(Cl)cn4)[C@@H]2C3)n1 [Example 285]
Q: O=C(c1cccc(F)c1-c1ncccn1)N1CC2CCC1C(Nc1cnc(C(F)(F)F)cn1)C2 (racemic) [Example 257]
R: O=C(c1ccccc1-n1nccn1)N1C[C@H]2C[C@@H](Nc3ccc(Br)cn3)[C@@H]1C2 [Example 166]
Inquiry: Sort by Ki, descending. Please express your ranking as an ordered list of the labels.
Reply text: P, Q, R

A: Cc1cnc(C(=O)N2C[C@@H]3CC[C@H]2[C@H](Oc2ncc(C(F)(F)F)cc2F)C3)c(-c2ncccn2)c1 [Example 283]
B: CN(c1cnc(C(F)(F)F)cn1)[C@@H]1C[C@H]2C[C@@H]1N(C(=O)c1cc(F)ccc1-c1ncccn1)C2 [Example 209]
Inquiry: Return label of the item with the larger Ki. Candidates: A , B . Respond using the label that marks the chosen record.
Reply text: A
(A: 21 nM, B: 9 nM)

A: O=C(c1ccccc1-c1ncccn1)N1C[C@H]2C[C@@H](Oc3cnc(C(F)(F)F)cn3)[C@@H]1C2 [Example 130]
B: CCc1cnc(O[C@@H]2C[C@H]3C[C@@H]2N(C(=O)c2ccccc2-n2nccn2)C3)nc1 [Example 135]
Inquiry: # return whichever of A and B has the smaller Ki Respond using the label that marks the chosen record.
Reply text: A
(A: 29 nM, B: 61 nM)
